Just for reference, PubChem BioAssay (NCI) is where these values come from.

tested on: SW-620 colon; test: NCI tumour cell line growth inhibition, 48 h; in the data active = GI50 below about 0.43 µM; inactive = the rest
Write down the outcome that applies. Available outcomes: 1.0 = active, 0.0 = inactive

MOLECULE | TESTED SYSTEM | LABEL CLASS
O=C(CS(=O)c1nc2ccccc2nc1-c1ccccc1)Nc1ccc(Cl)cc1 (configuration not stated) | SW-620 colon | 0.0

Q: Short answer needed: outcome of this test for COc1ccccc1-c1ccc2c(N)c(C(=O)c3ccc4c(c3)OCO4)sc2n1 ?
A: 0.0

Q: Returns: the outcome recorded for O=C(CCN1CCCC1)Nc1ccc2c(Nc3ccc(Br)cc3)c3ccccc3nc2c1 in this assay.
A: 0.0

Q: Could you kindly confirm the outcome this assay logged for COc1ccc2c(c1)C(=O)/C(=C/c1cccc(OCC(=O)c3ccc([N+](=O)[O-])cc3)c1)CO2 ?
A: 0.0

Q: Could you check what this test reported for CCCCCCCCCCCCSC1=CC(=O)C=CC1=O ?
A: 0.0

Q: Test call for this molecule, please: COc1cc(Cn2c3ccccc3c3cc(C)cc(OC)c32)cc2c1[nH]c1ccccc12
A: 0.0

Q: Name the outcome recorded for CN(CCCCCCCCNc1ccnc2ccccc12)Cc1ccc(-c2ccc(-c3ccc(C#N)cc3)s2)cc1 in the assay.
A: 1.0

###

system: NCI-H522 lung; assay: NCI tumour cell line growth inhibition, 48 h; in the data active means GI50 below about 0.43 µM; inactive means the rest
Allowed answers: active, inactive

Below are worked cases with known answers.
SMILES NOTATION | LABEL CLASS
COc1ccc2[nH]cc(Cc3c[nH]c4ccc(OC)cc34)c2c1 | inactive
CN(C)c1ccc2cc3c(cc2c1)Oc1ccccc1N3.[Cl][Zn][Cl] | inactive
CN1CCN(C(=O)[C@@]2(C)CC[C@]3(C)CC[C@]4(C)C(=CC[C@@H]5[C@@]6(C)CC[C@H](OC(=O)c7cccnc7)C(C)(C)[C@@H]6CC[C@]54C)[C@@H]3C2)CC1 | inactive
COc1cc(Cn2c3ccccc3c3cc(C)cc(OC)c32)cc2c1[nH]c1ccccc12 | inactive

Please turn your attention to the following entry.
Q: Query: recorded result category for CCCCCCCCCCCCSC1=CC(=O)C=CC1=O in this test
A: active

###

tested on: U251 CNS; test: NCI tumour cell line growth inhibition, 48 h
REPORTED ENDPOINT: TGI

Worked cases, TGI given:
COMPOUND | TGI
Nc1n[nH]c(N)n1 | > 10000 µM
O=C(OCC1CC(C2(O)CCCCC2)C(=O)O1)c1ccccc1 (stereo unspecified) | > 100 µM
CCC/C=C/C=C\C(=O)O[C@@H]1[C@@H](C)[C@]2(O)[C@@H]3C=C(C)C(=O)[C@H]3CC(COC(C)=O)=C[C@H]2[C@@H]2C(C)(C)[C@]12OC(C)=O | 69.1 µM
S=C1C(CCCOCc2ccccc2)C2CCCC23CC2(CCN13)OCCS2 (stereo unspecified) | > 10 µM
CC(=O)C(C(=O)C(=O)Nc1cc(Cl)c(Cl)cc1Cl)c1csc(N)n1 (stereo unspecified) | > 100 µM

Please go through the list and note TGI for each compound.
1. CCOC(=O)Cc1ccc(Nc2nc3cc(F)c(F)cc3nc2C(=O)OCC)cc1
2. Cc1nccc2c3ccc(OCc4cn(-c5ccc(Br)cc5)nn4)cc3n(CCCc3ccccc3)c12
3. CC1(C)C=C(N2CCN(C3=CC(C)(C)NC(C)(C)C3)CC2)CC(C)(C)N1

A:
["> 100 µM", "3.79 µM", "> 100 µM"]

Give measured TGI for every item shown.
1. Nc1nc(N)c(CCCCc2ccccc2)c(/C=C/c2ccc([N+](=O)[O-])cc2)n1
2. CC1(C)C2=CCCC(=O)[C@@]2(C)CC[C@@H]1O
3. CCCCCC1CC(C(C)=O)CN1c1ccc(F)cc1 (stereo unspecified)

A:
1. 11.4 µM
2. > 100 µM
3. > 100 µM

###

Give TGI for every item shown.
system: COLO 205 colon; test: NCI tumour cell line growth inhibition, 48 h

// known answers, use as guide
COMPOUND | REPORTED MEASUREMENT
c1ccc(N2CCN(CCCN3CCc4c([nH]c5ccccc45)C3c3cccnc3)CC2)cc1 (stereo not drawn) | 56.2 µM
O=C(Cn1c2ccc(Br)cc2c2nc3ccccc3nc21)N1CCOCC1 | > 100 µM
CC(=O)C(C(=O)C(=O)Nc1cc(Cl)c(Cl)cc1Cl)c1csc(N)n1 (stereo not drawn) | > 100 µM
O=C(N/N=C\c1ccc(Cl)cc1)Nc1cccc2ccccc12 | > 100 µM
O=C(Nc1ccccc1)c1cc2cc(CCl)ccc2oc1=O | > 100 µM
O=C(O)C1Cc2[nH]c3ccccc3c2C2CCCC12 (stereo not drawn) | > 100 µM

For every record below, what is its TGI?
1. CN(C)C[C@@H]1CCn2cc(c3ccccc32)C2=C(C(=O)NC2=O)c2cn(c3ccccc23)CCO1
2. N#C/C(=C\c1ccccc1F)C(=O)c1ccccc1
3. C[C@H]1[C@H](C)CC[C@]2(C(=O)O)CCC3(COC(=O)/C=C/c4ccc(O)cc4)C(=CCC4[C@@]5(C)CC[C@H](O)C(C)(C)C5CC[C@]43C)[C@H]12 (stereo partly drawn)

A:
> 10 µM
> 100 µM
17.9 µM

Required: TGI, one value per compound below.
1. Nc1n[nH]c(N)n1
2. O=C(CCN1CCCC1)Nc1ccc2c(Nc3ccc(Br)cc3)c3ccccc3nc2c1
3. Cc1ccc2nc(-c3nccn3C)cc(C(=O)NC(C)CN(C)C)c2c1 (stereo not drawn)
4. COc1cccc2c1C(=O)c1c(O)c3c(c(O)c1C2=O)CC(O)(C(C)=O)CC3OC1OC(COC(C)=O)C(OC(C)=O)C(OC(C)=O)C1OC(C)=O (stereo not drawn)
5. O=C1C(c2ccccc2)=[N+]([O-])c2cc([N+](=O)[O-])ccc21
6. Cc1ccc(C(CCO)CCO)nc1
7. CC(C)NC(=O)OCc1c(COC(=O)NC(C)C)c(-c2cc[n+](COC(=O)Cc3ccccc3)cc2)n2c1CCC2

A:
["9990 µM", "4.33 µM", "> 100 µM", "> 100 µM", "36.9 µM", "> 100 µM", "> 100 µM"]

###

Record form. Attribute: GI50. Fill in for each entry.
system: KM12 colon; assay: NCI tumour cell line growth inhibition, 48 h

Take a look at these entries with their results.
COMPOUND | REPORTED ENDPOINT | REPORTED MEASUREMENT
C=C1C(=O)O[C@H]2[C@H]1CC/C(CNC(=O)C(C)c1ccc(CC(C)C)cc1)=C\CC[C@@]1(C)O[C@@H]21 (some centres undefined) | GI50 | 2.38 µM
Cc1cc2oc(=O)cc(OC/C=C3/CCC(=O)O3)c2cc1C | GI50 | 3.31 µM
CCCn1cc(/C=N\N=C2\C(=O)Nc3ccc(C)cc32)c2ccccc21 | GI50 | 3.22 µM
COc1cc2c(cc1OC)-c1c(c3ccc([N+](=O)[O-])cc3c(=O)n1CCCN=[N+]=[N-])C2=O | GI50 | > 100 µM
Cn1cc(-c2csc(-c3cn(CCCN4CCCCC4)c4ccc(Br)cc34)n2)c2cccnc21 | GI50 | 1.89 µM

Below are 4 compounds. Give each one its GI50.
1. O=c1oc2ccc(I)cc2c(=O)n1-c1ccc(I)cc1F
2. COc1ccc2[nH]cc(C3(c4c[nH]c5ccc(OC)cc45)C(=O)Nc4ccc(Cl)cc43)c2c1
3. CCOC1Oc2ccccc2C(=O)/C1=C\Nc1ccc(C(=O)O)c(O)c1 (centres undefined)
4. CCN(CC)CCOc1ccc(NC(=O)C(C(C)C)N2C(=O)/C(=C/c3ccc(Br)cc3)SC2=S)cc1 (centres undefined)

A:
["2.2 µM", "2.52 µM", "26.3 µM", "3.19 µM"]

###

For each of the molecules below, state its TGI.
tested on: SK-OV-3 ovarian; test: NCI tumour cell line growth inhibition, 48 h

Before answering, review these 2 worked examples.
MOLECULE | TGI
Cc1ccc(/C=C2\CCS(=O)(=O)c3ccccc3C2=O)cc1 | 46.3 µM
Cc1cnc2c(c1)C(=O)N(c1ccc(Br)cc1)S2(=O)=O | > 100 µM

Parameters: items (list). Returns: TGI for each item.
1. CC(/C=C1\CCC(CN(C)C)C1=O)c1cccc(Br)c1 (stereo not given)
2. COc1cc2cnc3c4cc(O)ccc4ccc3c2cc1OC
3. COC(=O)c1cc2c([nH]c3ccccc32)c(-c2nc3ccccc3cc2CO)n1
4. N#C/C(=C\c1ccccc1F)C(=O)c1ccccc1

A:
> 100 µM
> 100 µM
> 100 µM
> 100 µM

The following molecules each have a reported value; give each one's TGI.
1. Cc1nnc(N)nc1C/C=C/C(C)Sc1ccc(Cl)cc1 (stereo not given)
2. COc1ccc2[nH]cc(C3(c4c[nH]c5ccc(OC)cc45)C(=O)Nc4ccc(Cl)cc43)c2c1
3. CCOC(OCC)[C@@H]1C[C@@H]2N(O[C@H](OC3CCCC3(c3ccccc3)c3ccccc3)[C@H](OC(C)=O)[C@@]2(CC)Cc2ccc(OC)c(OC)c2)O1 (stereo not given in full)
4. COc1ccc(C(=O)Nc2ccn(CCOC(=O)c3ccc(OC)cc3)c(=O)n2)cc1
5. O=C(CS(=O)c1nc2ccccc2nc1-c1ccccc1)Nc1ccc(Cl)cc1 (stereo not given)
6. CCc1cc2c(Nc3ccccc3)c3c(nc2s1)CCCC3
7. S=C1C(CCCOCc2ccccc2)C2CCCC23CC2(CCN13)OCCS2 (stereo not given)

A:
["21.9 µM", "23.4 µM", "> 100 µM", "> 100 µM", "> 100 µM", "> 100 µM", "> 10 µM"]

Your task in this section: give TGI for each listed record.
1. CC1=C(N2CC2)C(=O)C(C)=C(N2CC2)C1=O
2. O=C(C(=O)c1cccnc1)c1cccnc1
3. COC1/C=C/OC2(C)Oc3c(C)c(O)c4c(O)c(c(/C=N/N(c5ccccc5)c5ccccc5)c(O)c4c3C2=O)NC(=O)C(C)=C/C=C/C(C)C(O)C(C)C(O)C(C)C(OC(C)=O)C1C (stereo not given)
4. O=c1[nH]nc(-c2ccccc2)n1-n1cccc1
5. CCc1c2c(nc3ccc(OC(=O)OCc4ccc(B5OC(C)(C)C(C)(C)O5)cc4)cc13)-c1cc3c(c(=O)n1C2)COC(=O)[C@]3(O)CC
6. O=[N+]([O-])c1cc(C(F)(F)F)cc2n[se]nc12
7. CCCCCCC(O)C(=O)OC1C2C(CC1(C)C)C(O)C13OC1C(O)C1(CO1)[C@@]23C (stereo not given in full)

A:
["2.9 µM", "> 100 µM", "12.9 µM", "> 100 µM", "> 100 µM", "27.5 µM", "> 100 µM"]
